# TGT: Sirtuin 7 (h) (Homo sapiens, UniProt Q9NRC8)
# Sequence (Q9NRC8 whole entry): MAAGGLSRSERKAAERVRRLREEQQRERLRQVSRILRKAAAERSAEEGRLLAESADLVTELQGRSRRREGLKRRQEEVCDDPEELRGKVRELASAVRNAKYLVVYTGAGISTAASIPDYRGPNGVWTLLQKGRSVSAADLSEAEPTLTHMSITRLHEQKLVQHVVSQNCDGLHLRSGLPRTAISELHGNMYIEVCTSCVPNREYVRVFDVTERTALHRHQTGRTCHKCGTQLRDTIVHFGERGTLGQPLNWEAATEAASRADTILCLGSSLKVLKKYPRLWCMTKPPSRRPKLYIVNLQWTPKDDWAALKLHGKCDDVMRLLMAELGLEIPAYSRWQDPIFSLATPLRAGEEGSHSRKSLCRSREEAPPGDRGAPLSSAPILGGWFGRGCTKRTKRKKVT
# ASSAY_INFO: Epigenetic enzyme assay, Sirtuins
# Type: biochemical
# EXPERIMENTAL_PARAMETERS: Table 10; read-out: Reference IC50
QUANTITY: IC50

What value of IC50 has been reported for the following compound? O=C1c2ccccc2C(=O)c2c(NCCc3ccc(O)cc3)ccc(NCCc3ccc(O)cc3)c21 [JFD00244, reference compound]
1300 µM

* * *

Examples of molecules with documented pEC50 follow.
# System: 280 human cancer cell lines
# ASSAY_INFO: OncoPanel cell proliferation assay (10-day)
# Format: cell-based
# EXPERIMENTAL_PARAMETERS: Homo sapiens, Daoy, CNS - Medulloblastoma; read-out: Cell Count EC50
pEC50 here is simply -log10 of the concentration when that concentration is written in mol/L.

The examples below pair each entry with its known result.
>  <MOLECULE>
CC(C)=CCC[C@H](CO)[C@@H]1CC[C@@H](C)c2c1cc(C)c(O)c2O [Compound 1, 7,8,18-trihydroxyserrulat-14-ene]

>  <TGT>
280 human cancer cell lines

>  <pEC50>
5.97

$$$$
>  <MOLECULE>
CC(C)=CCC[C@H](C)[C@@H]1CC[C@@H](C)c2c1cc(C)c(O)c2O [Compound 4, 7,8-dihydroxyserrulat-14-ene]

>  <TGT>
280 human cancer cell lines

>  <pEC50>
5.50

$$$$

The record that follows has no pEC50 shown yet.
What value of pEC50 has been reported for the following molecule? CC(C)=CCC[C@@H]1C(O)Oc2c(C)cc(O)c3c2[C@H]1CC[C@H]3C (stereo partly drawn)
5.06

* * *

# TGT: PCAF (h) bromodomain (Homo sapiens, UniProt Q92831)
# Construct: Bromodomain
# Sequence (Q92831 723-827 limits assumed): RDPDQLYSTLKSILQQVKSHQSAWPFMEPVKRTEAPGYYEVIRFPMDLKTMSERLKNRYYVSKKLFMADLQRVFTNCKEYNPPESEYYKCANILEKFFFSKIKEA
# ASSAY_INFO: Epigenetic binding assay, Bromodomain
# EXPERIMENTAL_PARAMETERS: Table 4; read-out: Reference IC50
QUANTITY: pIC50
pIC50 here is simply -log10 of the concentration when that concentration is written in mol/L.

What value of pIC50 has been reported for the following compound? Cc1sc2c(c1C)C(c1ccc(Cl)cc1)=N[C@@H](CC(=O)OC(C)(C)C)c1nnc(C)n1-2 [JQ-1, reference compound]
4.92

* * *

# System: 280 human cancer cell lines
# ASSAY_INFO: OncoPanel cell proliferation assay (10-day)
# Type: cell-based
# EXPERIMENTAL_PARAMETERS: Homo sapiens, A-427, A427, Lung - NSCLC; read-out: Cell Count IC50
QUANTITY: pIC50
pIC50 here is simply -log10 of the concentration when that concentration is written in mol/L.

The examples below pair each entry with its known result.
>  <MOLECULE>
CC(C)=CCC[C@@H]1C(O)Oc2c(C)cc(O)c3c2[C@H]1CC[C@H]3C (stereo partly drawn)

>  <pIC50>
4.95

$$$$
>  <MOLECULE>
CC(C)=CCC[C@H](CO)[C@@H]1CC[C@@H](C)c2c1cc(C)c(O)c2O [Compound 1, 7,8,18-trihydroxyserrulat-14-ene]

>  <pIC50>
5.34

$$$$

The record that follows has no pIC50 shown yet.
Lab note: need pIC50 for CC(C)=CCC[C@H](C)[C@@H]1CC[C@@H](C)c2c1cc(C)c(O)c2O [Compound 4, 7,8-dihydroxyserrulat-14-ene] on 280 human cancer cell lines, anyone have it?
5.00
